These entries and their values trace back to ChEMBL document CHEMBL3865840.

assay: Apparent permeability from basolateral to apical side in MDCK cells at 10 uM by LC/MS/MS analysis; type: ADME, cell-based, Canis lupus familiaris; settings: dog
ASSAY ENDPOINT: Papp B→A at 10 µM (×10⁻⁶ cm/s)
Enter your answer as a number in ×10⁻⁶ cm/s; do not include the unit.

query: Papp B→A at 10 µM lookup needed for CC(C)OC(=O)N1CCC2(CC1)CC2CNC(=O)N1Cc2ccncc2C1 (racemic) , thanks.
result: 14

query: Papp B→A at 10 µM lookup needed for CC(C)CC(=O)N1CCC2(CC1)CC2CNC(=O)N1Cc2ccncc2C1 (racemic) , thanks.
result: 14

query: Papp B→A at 10 µM lookup needed for CC1(CC(=O)N2CCC3(CC2)CC3CNC(=O)N2Cc3ccncc3C2)COC1 (racemic) , thanks.
result: 4

query: Papp B→A at 10 µM lookup needed for Cc1ccncc1C(=O)N1CCC2(CC1)CC2CNC(=O)N1Cc2ccncc2C1 (racemic) , thanks.
result: 2.7

query: Papp B→A at 10 µM lookup needed for CC1(CC(=O)N2CCC3(CC2)CC3CNC(=O)N2Cc3ccncc3C2)CCOCC1 (racemic) , thanks.
result: 9.1

New cases:
query: Papp B→A at 10 µM lookup needed for CC(C)(C)CC(=O)N1CCC2(CC1)CC2CNC(=O)N1Cc2ccncc2C1 (racemic) , thanks.
result: 13

query: Papp B→A at 10 µM lookup needed for Cc1nn(C)cc1C(=O)N1CCC2(CC1)CC2CNC(=O)N1Cc2ccncc2C1 (racemic) , thanks.
result: 1.1

query: Papp B→A at 10 µM lookup needed for CN1CCC(c2ccc(C(=O)N3CCC4(CC3)CC4CNC(=O)N3Cc4ccncc4C3)cc2)CC1 (racemic) , thanks.
result: 1

query: Papp B→A at 10 µM lookup needed for CC1(OC(=O)N2CCC3(CC2)CC3CNC(=O)N2Cc3ccncc3C2)CCC1 (racemic) , thanks.
result: 12

---

assay: Clearance in Sprague-Dawley rat at 1 mg/kg, iv; type: ADME, organism-based; conditions: in vivo
ASSAY ENDPOINT: clearance (mL/min/kg)
Enter your answer as a number in mL/min/kg; do not include the unit.

query: clearance lookup needed for CC1(OC(=O)N2CCC3(CC2)C[C@@H]3CNC(=O)N2Cc3ccncc3C2)COC1 , thanks.
result: 110

---

test: Oral bioavailability in Beagle dog at 3 mg/kg; type: ADME, organism-based, Canis lupus familiaris; conditions: in vivo
ASSAY ENDPOINT: bioavailability (%)
Enter your answer as a number in %; do not include the unit.

query: bioavailability lookup needed for CC1(OC(=O)N2CCC3(CC2)C[C@@H]3CNC(=O)N2Cc3ccncc3C2)COC1 , thanks.
result: 86

---

Cytochrome P450 2C9 (Homo sapiens, UniProt P11712) IC50 data
Sequence (P11712 whole entry): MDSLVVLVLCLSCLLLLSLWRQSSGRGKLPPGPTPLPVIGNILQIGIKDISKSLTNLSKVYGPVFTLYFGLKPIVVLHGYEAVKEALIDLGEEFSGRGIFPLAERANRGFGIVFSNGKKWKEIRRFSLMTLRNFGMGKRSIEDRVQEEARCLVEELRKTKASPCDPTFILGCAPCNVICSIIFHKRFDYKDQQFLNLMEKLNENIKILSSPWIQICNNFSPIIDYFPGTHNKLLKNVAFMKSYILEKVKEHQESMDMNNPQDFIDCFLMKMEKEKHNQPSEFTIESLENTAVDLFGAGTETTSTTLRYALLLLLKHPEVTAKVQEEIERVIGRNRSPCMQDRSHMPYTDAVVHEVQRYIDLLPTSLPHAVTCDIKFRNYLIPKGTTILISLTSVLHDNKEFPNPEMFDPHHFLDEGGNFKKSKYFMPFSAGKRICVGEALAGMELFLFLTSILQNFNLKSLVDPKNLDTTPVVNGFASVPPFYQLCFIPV
Enter your answer as a number in µM; do not include the unit.

query: IC50 lookup needed for CN(C)C(=O)c1cccc(COc2ccc(CNC(=O)c3cc4cnccc4[nH]3)cc2)c1 , thanks.
result: 0.4

New cases:
query: IC50 lookup needed for O=C(/C=C/c1cccnc1)NCCCCC1CCN(C(=O)c2ccccc2)CC1 [DAPORINAD] , thanks.
result: 3.6

---

assay: Apparent permeability from apical to basolateral side in MDCK cells at 10 uM by LC/MS/MS analysis; type: ADME, cell-based, Canis lupus familiaris; conditions: dog
Output yes for records whose Papp A→B at 10 µM is lower than 2 ×10⁻⁶ cm/s, no for records at or above 2 ×10⁻⁶ cm/s.

Check out these entries, answers already filled in.
query: Consider O=C(NCc1ccc([S@@+]([O-])c2cc(F)cc(F)c2)cn1)c1cc2ccncc2o1 . Does its Papp A→B at 10 µM lie strictly below 2 ×10⁻⁶ cm/s?
result: no

query: Consider O=C(CCC1CCOCC1)N1CCC2(CC1)CC2CNC(=O)N1Cc2ccncc2C1 (racemic) . Does its Papp A→B at 10 µM lie strictly below 2 ×10⁻⁶ cm/s?
result: yes

query: Consider O=C(CC1CCOCC1)N1CCC2(CC1)CC2CNC(=O)N1Cc2ccncc2C1 (racemic) . Does its Papp A→B at 10 µM lie strictly below 2 ×10⁻⁶ cm/s?
result: yes

query: Consider CC1(OC(=O)N2CCC3(CC2)CC3CNC(=O)N2Cc3ccncc3C2)CCC1 (racemic) . Does its Papp A→B at 10 µM lie strictly below 2 ×10⁻⁶ cm/s?
result: no

query: Consider Cc1nc(C)c(C(=O)N2CCC3(CC2)CC3CNC(=O)N2Cc3ccncc3C2)s1 (racemic) . Does its Papp A→B at 10 µM lie strictly below 2 ×10⁻⁶ cm/s?
result: yes

Turning to the following compound.
query: Consider CC(C)OC(=O)N1CCC2(CC1)CC2CNC(=O)N1Cc2ccncc2C1 (racemic) . Does its Papp A→B at 10 µM lie strictly below 2 ×10⁻⁶ cm/s?
result: no

---

target: Cytochrome P450 2C9 (Homo sapiens)
Property: pIC50; scope: individual molecules
Please report pIC50 as the negative decimal logarithm of the molar concentration, giving only the number.

Answered cases to consult:
query: Please tell me: pIC50 of Nc1cc2cc(C(=O)NCc3ccc(S(=O)(=O)c4ccccc4)cc3)oc2cn1 , system Cytochrome P450 2C9 (Homo sapiens)?
result: 5.41

query: Please tell me: pIC50 of O=C(NCc1ccc(C(=O)N2CCCC2)cc1)c1cc2cnccc2[nH]1 , system Cytochrome P450 2C9 (Homo sapiens)?
result: 6.35

query: Please tell me: pIC50 of NS(=O)(=O)c1ccc(CNC(=O)c2cc3cnccc3[nH]2)cc1 , system Cytochrome P450 2C9 (Homo sapiens)?
result: 6.47

The record that follows has no pIC50 shown yet.
query: Please tell me: pIC50 of O=C(NCc1ccc(NS(=O)(=O)C2CCCC2)cc1)c1cc2cnccc2[nH]1 , system Cytochrome P450 2C9 (Homo sapiens)?
result: 6.44

---

experiment: Protein binding in human plasma at 5 uM after 4 hrs by rapid equilibrium dialysis based LC-MS/MS analysis; type: ADME, cell-free; details: read-out: PPB (converted)
ASSAY ENDPOINT: fraction unbound at 4 h, 5 µM

query: fraction unbound at 4 h, 5 µM lookup needed for CC1(OC(=O)N2CCC3(CC2)C[C@@H]3CNC(=O)N2Cc3ccncc3C2)COC1 , thanks.
result: 0.44

---

assay: Protein binding in dog plasma at 5 uM after 4 hrs by rapid equilibrium dialysis based LC-MS/MS analysis; type: ADME, cell-free, Canis lupus familiaris; conditions: read-out: PPB (converted)
ASSAY ENDPOINT: fraction unbound at 4 h, 5 µM

query: fraction unbound at 4 h, 5 µM lookup needed for CC1(OC(=O)N2CCC3(CC2)C[C@@H]3CNC(=O)N2Cc3ccncc3C2)COC1 , thanks.
result: 0.34

---

assay: Volume of distribution at steady state in Sprague-Dawley rat at 1 mg/kg, iv; assay type: ADME, organism-based; settings: in vivo, read-out: Vdss
ASSAY ENDPOINT: Vd (L/kg)
Enter your answer as a number in L/kg; do not include the unit.

query: Vd lookup needed for CC1(OC(=O)N2CCC3(CC2)C[C@@H]3CNC(=O)N2Cc3ccncc3C2)COC1 , thanks.
result: 9

---

Cytochrome P450 2C19 (Homo sapiens, UniProt P33261) pIC50 data
Sequence (P33261 whole entry): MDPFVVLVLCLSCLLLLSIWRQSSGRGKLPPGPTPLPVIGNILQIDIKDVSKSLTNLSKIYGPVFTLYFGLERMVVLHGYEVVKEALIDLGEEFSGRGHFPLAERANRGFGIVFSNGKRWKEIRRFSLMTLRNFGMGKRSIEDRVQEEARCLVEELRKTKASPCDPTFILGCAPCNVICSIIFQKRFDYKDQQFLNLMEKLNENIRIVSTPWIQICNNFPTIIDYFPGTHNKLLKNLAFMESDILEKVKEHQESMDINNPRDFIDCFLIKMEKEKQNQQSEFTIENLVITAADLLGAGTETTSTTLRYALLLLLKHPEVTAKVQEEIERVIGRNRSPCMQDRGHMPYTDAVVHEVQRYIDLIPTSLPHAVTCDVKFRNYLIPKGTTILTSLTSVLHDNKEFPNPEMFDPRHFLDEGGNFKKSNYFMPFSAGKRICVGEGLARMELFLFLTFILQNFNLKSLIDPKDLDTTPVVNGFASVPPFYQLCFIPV
Please report pIC50 as the negative decimal logarithm of the molar concentration, giving only the number.

query: Please tell me: pIC50 of O=C(NCc1ccc(S(=O)(=O)c2cccc(C(F)(F)F)c2)cc1)c1cnc2[nH]ncc2c1 , system Cytochrome P450 2C19 (Homo sapiens, UniProt P33261)?
result: 5.19

The record that follows has no pIC50 shown yet.
query: Please tell me: pIC50 of N#CN=C(NCCCCCCOc1ccc(Cl)cc1)Nc1ccncc1 [CHS-828] , system Cytochrome P450 2C19 (Homo sapiens, UniProt P33261)?
result: 6.20

---

assay: Half life in Sprague-Dawley rat at 1 mg/kg, iv; type: ADME, organism-based; details: in vivo
ASSAY ENDPOINT: half-life (h)
Enter your answer as a number in h; do not include the unit.

query: half-life lookup needed for CC1(OC(=O)N2CCC3(CC2)C[C@@H]3CNC(=O)N2Cc3ccncc3C2)COC1 , thanks.
result: 1.4

---

test: Apparent permeability from basolateral to apical side in MDCK cells at 10 uM by LC/MS/MS analysis; format: ADME, cell-based, Canis lupus familiaris; conditions: dog
Property: Papp B→A at 10 µM; scope: individual molecules
Enter your answer as a number in nm/s; do not include the unit.

Answered cases to consult:
query: Papp B→A at 10 µM lookup needed for O=C(NCc1ccc([S@@+]([O-])c2cc(F)cc(F)c2)cn1)c1cc2ccncc2o1 , thanks.
result: 90

query: Papp B→A at 10 µM lookup needed for O=C(CC1CCOCC1)N1CCC2(CC1)CC2CNC(=O)N1Cc2ccncc2C1 (racemic) , thanks.
result: 70

query: Papp B→A at 10 µM lookup needed for Cc1nc(C)c(C(=O)N2CCC3(CC2)CC3CNC(=O)N2Cc3ccncc3C2)o1 (racemic) , thanks.
result: 90

query: Papp B→A at 10 µM lookup needed for Cc1c(C(=O)N2CCC3(CC2)CC3CNC(=O)N2Cc3ccncc3C2)cnn1C (racemic) , thanks.
result: 26

query: Papp B→A at 10 µM lookup needed for Nc1ccc(CNC(=O)Nc2ccc(S(=O)(=O)c3ccccc3)cc2)cn1 , thanks.
result: 55

query: Papp B→A at 10 µM lookup needed for CC(C)(C)OC(=O)N1CCC2(CC1)CC2CNC(=O)c1cc2cnccc2[nH]1 (racemic) , thanks.
result: 140

query: Papp B→A at 10 µM lookup needed for O=C(NCc1cccnc1)Nc1ccc(S(=O)(=O)c2ccccc2)cc1 , thanks.
result: 110

query: Papp B→A at 10 µM lookup needed for Cc1nc(C)c(C(=O)N2CCC3(CC2)CC3CNC(=O)N2Cc3ccncc3C2)s1 (racemic) , thanks.
result: 110

New cases:
query: Papp B→A at 10 µM lookup needed for CC1(OC(=O)N2CCC3(CC2)C[C@@H]3CNC(=O)N2Cc3ccncc3C2)COC1 , thanks.
result: 120
